Assay: self-splicing fitness, log relative to wild type (ln ratio); higher = more splicing; Tetrahymena group I intron in knt gene, E. coli kanamycin selection, DiMSum; sequences stand for … in CUCUCU…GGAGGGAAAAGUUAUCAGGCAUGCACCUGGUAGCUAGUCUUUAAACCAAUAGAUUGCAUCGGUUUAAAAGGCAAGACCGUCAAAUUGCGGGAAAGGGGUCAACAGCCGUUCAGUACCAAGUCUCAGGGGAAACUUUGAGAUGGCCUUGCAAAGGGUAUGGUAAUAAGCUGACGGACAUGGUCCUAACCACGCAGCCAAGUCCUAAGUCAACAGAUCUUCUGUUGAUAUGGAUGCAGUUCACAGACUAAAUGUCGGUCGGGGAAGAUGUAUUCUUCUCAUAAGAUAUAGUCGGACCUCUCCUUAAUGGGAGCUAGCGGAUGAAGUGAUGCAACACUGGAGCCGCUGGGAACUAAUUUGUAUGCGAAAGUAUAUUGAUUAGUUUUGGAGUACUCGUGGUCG;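 note: selection with 25 µg/mL kanamycin versus none on LB agar overnight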
Conditions: 30 °C
parameter.measured: self-splicing fitness (ln)
Give bare numbers.

seq.string: GCCCAGCAAUAUUACGACGU
experimental.result: 0.175
//
seq.string: GCGAAGCAAUAUUACGGCCU
experimental.result: -1.4
//
seq.string: GCCGAGCAAUAUUACGAGAC
experimental.result: -2.93
//
seq.string: GUUGAGCAAUAUUACGGAUC
experimental.result: -1.91

# per-item lookup of self-splicing fitness (ln); items listed below
1. UAUCAGCAAUAUUACGUGAA
2. CGCCAGCAAUAUUACGGUUU
3. AUAUAGCAAUAUUACGACUA
4. GAGCAGCAAUAUUACGUCUA

1. -0.844
2. -0.936
3. -0.8
4. 0.0729
